Reference source: ChEMBL document CHEMBL2150887

system: Mus musculus; assay: Neurotoxicity in Swiss albino mouse assessed as alteration in motor activity at 30 mg/kg, po administered 60 mins prior to testing measured for 5 mins by open field test relative to untreated-control; type: toxicity, organism-based; parameters: dose 30 mg/kg, route oral; conditions: in vivo
quantity: Activity

In [3]: df
Out[3]:
                                   compound  target_or_system     result
0  O=C(O)[C@H]1C[C@@H](Cl)C[C@@H](c2cccc3ccccc23)O1 (relative stereo)      Mus musculus  Non-toxic
1  OC[C@H]1CCC[C@@H](c2ccc3ccccc3c2)O1 (relative stereo)      Mus musculus  Non-toxic
2  OC[C@H]1C[C@@H](Cl)C[C@@H](c2cccc3ccccc23)O1 (relative stereo)      Mus musculus  Non-toxic
3  CC(C)C(=O)OC[C@H]1C[C@@H](Cl)C[C@@H](c2cccc3ccccc23)O1 (relative stereo)      Mus musculus  Non-toxic

Form field: reported Activity of OC[C@H]1C[C@@H](Cl)C[C@@H](c2ccc3ccccc3c2)O1 (relative stereo) Non-toxic
